target: Cannabinoid Receptor 2 (CNR2) (Homo sapiens); test: cAMP assay, CNR2
Sequence (P34972 whole entry): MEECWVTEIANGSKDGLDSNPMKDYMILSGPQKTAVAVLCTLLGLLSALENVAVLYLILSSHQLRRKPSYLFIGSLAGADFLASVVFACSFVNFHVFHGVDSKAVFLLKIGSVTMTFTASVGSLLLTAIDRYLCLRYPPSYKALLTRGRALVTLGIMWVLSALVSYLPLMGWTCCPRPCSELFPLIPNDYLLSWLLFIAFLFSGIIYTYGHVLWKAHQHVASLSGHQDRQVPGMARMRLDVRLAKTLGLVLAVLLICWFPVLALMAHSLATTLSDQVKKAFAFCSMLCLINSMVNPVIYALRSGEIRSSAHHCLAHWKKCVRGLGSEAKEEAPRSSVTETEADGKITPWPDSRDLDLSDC
Counter-ions that a name gives are not always drawn.
For each entry below, report its IC50 value.

Incoming: Which IC50 reading was recorded for the compound CNC(C)C(=O)c1c[nH]c2ccc(Cl)cc12 (stereo not drawn) [BK-5Cl-NM-AMT, hydrochloride] ?
Outgoing: > 10 µM

Incoming: Please give the result for CNC(C)C(=O)c1c[nH]c2ccc(F)cc12 (stereo not drawn) [BK-5F-NM-AMT, hydrochloride] too.
Outgoing: > 10 µM

Incoming: Please give the result for CNC(C)C(=O)c1c[nH]c2ccc(Br)cc12 (stereo not drawn) [BK-5Br-NM-AMT, hydrochloride] too.
Outgoing: > 10 µM

====

biological target: Voltage-gated L-type calcium channel (CAV1.2) (Homo sapiens); test: Ion channel assay, CAV1.2
Sequence (Q13936 whole entry, looked up): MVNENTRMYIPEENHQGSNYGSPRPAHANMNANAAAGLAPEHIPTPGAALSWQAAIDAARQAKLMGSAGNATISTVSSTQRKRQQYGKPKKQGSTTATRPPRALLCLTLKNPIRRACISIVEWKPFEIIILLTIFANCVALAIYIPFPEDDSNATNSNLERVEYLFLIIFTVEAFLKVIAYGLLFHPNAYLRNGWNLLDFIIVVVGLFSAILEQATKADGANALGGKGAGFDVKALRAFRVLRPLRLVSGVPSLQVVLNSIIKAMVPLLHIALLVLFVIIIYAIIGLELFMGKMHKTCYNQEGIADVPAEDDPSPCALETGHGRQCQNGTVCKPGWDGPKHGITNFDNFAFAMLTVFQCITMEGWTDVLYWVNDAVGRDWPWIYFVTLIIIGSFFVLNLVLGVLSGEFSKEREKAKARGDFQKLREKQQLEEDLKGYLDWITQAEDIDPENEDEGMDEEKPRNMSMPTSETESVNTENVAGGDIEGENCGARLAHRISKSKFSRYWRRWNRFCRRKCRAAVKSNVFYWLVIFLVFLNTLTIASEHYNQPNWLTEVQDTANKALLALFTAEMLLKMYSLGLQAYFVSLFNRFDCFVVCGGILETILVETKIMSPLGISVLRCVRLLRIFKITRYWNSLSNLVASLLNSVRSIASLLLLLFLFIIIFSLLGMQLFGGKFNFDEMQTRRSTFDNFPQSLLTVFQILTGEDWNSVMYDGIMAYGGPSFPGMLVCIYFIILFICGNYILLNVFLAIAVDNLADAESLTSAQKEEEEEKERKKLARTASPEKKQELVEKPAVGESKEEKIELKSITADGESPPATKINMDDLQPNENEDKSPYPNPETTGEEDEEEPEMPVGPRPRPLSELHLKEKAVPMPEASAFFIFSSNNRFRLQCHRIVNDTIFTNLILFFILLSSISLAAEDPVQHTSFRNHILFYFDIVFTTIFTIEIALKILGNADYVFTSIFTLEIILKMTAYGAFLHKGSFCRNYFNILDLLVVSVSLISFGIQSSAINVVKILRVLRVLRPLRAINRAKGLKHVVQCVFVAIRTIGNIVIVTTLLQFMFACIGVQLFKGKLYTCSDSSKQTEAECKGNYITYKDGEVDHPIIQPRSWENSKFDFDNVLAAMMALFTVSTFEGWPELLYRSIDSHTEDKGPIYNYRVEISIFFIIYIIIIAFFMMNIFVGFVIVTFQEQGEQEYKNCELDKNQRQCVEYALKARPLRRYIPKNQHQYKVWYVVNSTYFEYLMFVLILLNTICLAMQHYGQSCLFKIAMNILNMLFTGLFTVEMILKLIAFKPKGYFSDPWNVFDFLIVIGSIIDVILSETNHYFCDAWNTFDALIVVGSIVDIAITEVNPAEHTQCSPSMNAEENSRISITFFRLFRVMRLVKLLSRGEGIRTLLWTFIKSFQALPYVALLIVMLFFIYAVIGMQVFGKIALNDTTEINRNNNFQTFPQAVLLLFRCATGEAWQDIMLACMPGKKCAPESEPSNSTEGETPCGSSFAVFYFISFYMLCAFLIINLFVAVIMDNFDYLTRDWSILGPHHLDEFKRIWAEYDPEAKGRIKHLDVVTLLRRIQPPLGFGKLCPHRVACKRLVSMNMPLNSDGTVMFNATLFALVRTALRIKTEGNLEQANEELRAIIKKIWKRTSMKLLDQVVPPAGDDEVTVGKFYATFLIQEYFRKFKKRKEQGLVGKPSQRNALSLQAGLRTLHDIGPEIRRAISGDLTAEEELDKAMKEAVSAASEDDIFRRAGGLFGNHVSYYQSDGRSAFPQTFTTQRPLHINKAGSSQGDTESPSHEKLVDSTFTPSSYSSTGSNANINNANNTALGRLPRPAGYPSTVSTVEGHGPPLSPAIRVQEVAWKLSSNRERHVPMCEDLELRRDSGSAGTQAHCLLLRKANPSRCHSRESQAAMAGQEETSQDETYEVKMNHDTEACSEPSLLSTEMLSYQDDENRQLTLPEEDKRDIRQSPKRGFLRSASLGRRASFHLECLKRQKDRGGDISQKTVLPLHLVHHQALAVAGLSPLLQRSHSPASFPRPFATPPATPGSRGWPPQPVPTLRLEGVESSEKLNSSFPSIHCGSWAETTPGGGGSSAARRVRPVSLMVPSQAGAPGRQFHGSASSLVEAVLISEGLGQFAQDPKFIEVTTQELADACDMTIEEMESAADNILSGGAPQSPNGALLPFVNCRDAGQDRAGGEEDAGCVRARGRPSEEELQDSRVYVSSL
pIC50: −log10 of the molar value. Counter-ions that a name gives are not always drawn.
experimentalReadout: pIC50

Incoming: Which pIC50 reading was recorded for the molecule CNC(C)C(=O)c1c[nH]c2ccc(Br)cc12 (stereo not drawn) [BK-5Br-NM-AMT, hydrochloride] ?
Outgoing: < 5.00

Incoming: Please give the result for CNC(C)C(=O)c1c[nH]c2ccc(F)cc12 (stereo not drawn) [BK-5F-NM-AMT, hydrochloride] too.
Outgoing: < 5.00

Incoming: Please give the result for CNC(C)C(=O)c1c[nH]c2ccc(Cl)cc12 (stereo not drawn) [BK-5Cl-NM-AMT, hydrochloride] too.
Outgoing: < 5.00

====

biological target: Dopamine Receptor D2 (DRD2S) (Homo sapiens, UniProt P14416); test: cAMP assay, DRD2S
Sequence (P14416 1-414 isoform P14416-2): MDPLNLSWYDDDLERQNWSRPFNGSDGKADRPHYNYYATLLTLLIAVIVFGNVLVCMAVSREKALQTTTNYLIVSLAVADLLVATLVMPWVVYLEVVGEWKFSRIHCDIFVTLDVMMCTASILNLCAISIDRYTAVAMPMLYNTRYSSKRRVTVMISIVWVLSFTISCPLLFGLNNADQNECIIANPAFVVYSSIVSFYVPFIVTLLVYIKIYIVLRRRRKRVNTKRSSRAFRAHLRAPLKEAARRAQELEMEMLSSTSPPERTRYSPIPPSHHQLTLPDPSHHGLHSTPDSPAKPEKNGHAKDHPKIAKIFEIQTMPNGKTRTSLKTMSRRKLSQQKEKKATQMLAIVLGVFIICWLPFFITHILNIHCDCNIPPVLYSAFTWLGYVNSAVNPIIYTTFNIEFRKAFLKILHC
Counter-ions that a name gives are not always drawn.
For each entry below, report its pIC50 value.
The quantity pIC50 is defined as the negative base-10 logarithm of the molar concentration.

Incoming: Which pIC50 reading was recorded for the compound CNC(C)C(=O)c1c[nH]c2ccc(Cl)cc12 (stereo not drawn) [BK-5Cl-NM-AMT, hydrochloride] ?
Outgoing: 5.21

Incoming: Please give the result for CNC(C)C(=O)c1c[nH]c2ccc(F)cc12 (stereo not drawn) [BK-5F-NM-AMT, hydrochloride] too.
Outgoing: 5.28

Incoming: Please give the result for CNC(C)C(=O)c1c[nH]c2ccc(Br)cc12 (stereo not drawn) [BK-5Br-NM-AMT, hydrochloride] too.
Outgoing: 5.37

====

Target: Monoamine oxidase type A (MAOA) (Homo sapiens, UniProt P21397)
Construct: purchased Sigma
Sequence (P21397 1-527): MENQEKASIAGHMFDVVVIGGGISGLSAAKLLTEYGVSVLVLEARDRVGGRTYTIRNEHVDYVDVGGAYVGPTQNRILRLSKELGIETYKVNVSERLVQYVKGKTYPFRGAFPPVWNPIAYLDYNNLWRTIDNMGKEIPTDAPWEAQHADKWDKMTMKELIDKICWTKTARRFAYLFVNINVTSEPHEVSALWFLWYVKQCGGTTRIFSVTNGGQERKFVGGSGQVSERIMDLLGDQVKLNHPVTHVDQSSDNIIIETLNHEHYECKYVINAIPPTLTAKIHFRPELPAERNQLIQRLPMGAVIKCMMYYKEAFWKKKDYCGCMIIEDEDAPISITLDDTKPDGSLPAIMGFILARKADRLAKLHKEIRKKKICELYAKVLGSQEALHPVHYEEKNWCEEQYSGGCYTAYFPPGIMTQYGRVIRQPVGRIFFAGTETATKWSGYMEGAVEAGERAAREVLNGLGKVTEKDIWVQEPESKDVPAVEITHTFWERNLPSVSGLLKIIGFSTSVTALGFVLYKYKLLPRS
Assay: Enzymatic assay, MAOA (kynuramine substrate)
Type: biochemical
Conditions: Table 10, Source: Original data; read-out: MAOA IC50
experimentalReadout: pIC50
The quantity pIC50 is defined as the negative base-10 logarithm of the molar concentration.

Incoming: Which pIC50 reading was recorded for the molecule CNCC(=O)c1c[nH]c2ccc(F)cc12 [reference compound] ?
Outgoing: 5.46

====

For each entry below, report its pEC50 value.
target: Dopamine Receptor D2 (DRD2S) (Homo sapiens, UniProt P14416); assay: cAMP assay, DRD2S
pEC50: −log10 of the molar value. Structures can show the parent of a compound that is named as a salt.

Incoming: Which pEC50 reading was recorded for the molecule CNC(C)C(=O)c1c[nH]c2ccc(Cl)cc12 (stereo not drawn) [BK-5Cl-NM-AMT, hydrochloride] ?
Outgoing: < 5.00

Incoming: Please give the result for CNC(C)C(=O)c1c[nH]c2ccc(Br)cc12 (stereo not drawn) [BK-5Br-NM-AMT, hydrochloride] too.
Outgoing: < 5.00

Incoming: Please give the result for CNC(C)C(=O)c1c[nH]c2ccc(F)cc12 (stereo not drawn) [BK-5F-NM-AMT, hydrochloride] too.
Outgoing: < 5.00

====

# UniProt P20309: pIC50 values follow
# Sequence (P20309 whole entry): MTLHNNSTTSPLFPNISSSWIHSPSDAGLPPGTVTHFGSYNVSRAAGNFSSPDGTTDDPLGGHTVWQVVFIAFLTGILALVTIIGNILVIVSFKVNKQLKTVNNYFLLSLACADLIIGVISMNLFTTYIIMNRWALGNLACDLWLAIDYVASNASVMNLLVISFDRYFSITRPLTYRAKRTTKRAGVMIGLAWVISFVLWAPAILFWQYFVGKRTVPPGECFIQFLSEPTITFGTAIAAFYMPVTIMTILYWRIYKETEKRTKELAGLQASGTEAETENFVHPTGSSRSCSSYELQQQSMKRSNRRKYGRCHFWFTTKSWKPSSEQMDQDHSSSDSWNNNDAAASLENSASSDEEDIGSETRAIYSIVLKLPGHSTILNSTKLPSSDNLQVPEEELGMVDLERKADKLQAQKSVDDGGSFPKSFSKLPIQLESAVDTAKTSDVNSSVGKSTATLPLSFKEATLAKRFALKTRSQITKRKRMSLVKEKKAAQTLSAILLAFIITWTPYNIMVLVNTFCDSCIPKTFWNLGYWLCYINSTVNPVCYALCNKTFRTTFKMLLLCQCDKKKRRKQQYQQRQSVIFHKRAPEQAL
pIC50: −log10 of the molar value. Where a name gives a salt, the structure may show the parent alone.

Incoming: Which pIC50 reading was recorded for the molecule CNC(C)C(=O)c1c[nH]c2ccc(F)cc12 (stereo not drawn) [BK-5F-NM-AMT, hydrochloride] ?
Outgoing: < 5.00

Incoming: Please give the result for CNC(C)C(=O)c1c[nH]c2ccc(Br)cc12 (stereo not drawn) [BK-5Br-NM-AMT, hydrochloride] too.
Outgoing: < 5.00

Incoming: Please give the result for CNC(C)C(=O)c1c[nH]c2ccc(Cl)cc12 (stereo not drawn) [BK-5Cl-NM-AMT, hydrochloride] too.
Outgoing: < 5.00

====

For each entry below, report its pEC50 value.
target: Dopamine Receptor D1 (DRD1) (Homo sapiens); experiment: cAMP assay, DRD1; assay type: cell-based
Sequence (P21728 whole entry): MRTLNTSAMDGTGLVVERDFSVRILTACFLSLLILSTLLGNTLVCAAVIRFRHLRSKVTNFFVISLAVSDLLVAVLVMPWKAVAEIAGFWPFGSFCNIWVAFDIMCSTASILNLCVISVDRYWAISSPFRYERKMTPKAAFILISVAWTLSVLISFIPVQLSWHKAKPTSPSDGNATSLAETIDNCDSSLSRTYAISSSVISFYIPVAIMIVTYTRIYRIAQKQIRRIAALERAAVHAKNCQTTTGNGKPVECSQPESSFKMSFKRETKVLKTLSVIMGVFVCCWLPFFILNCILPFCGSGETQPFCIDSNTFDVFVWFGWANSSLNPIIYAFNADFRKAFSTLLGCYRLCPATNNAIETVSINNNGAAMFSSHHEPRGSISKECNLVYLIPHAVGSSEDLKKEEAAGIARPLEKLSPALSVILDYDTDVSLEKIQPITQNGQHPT
pEC50: −log10 of the molar value. Where a name gives a salt, the structure may show the parent alone.

Incoming: Which pEC50 reading was recorded for the molecule CNC(C)C(=O)c1c[nH]c2ccc(Br)cc12 (stereo not drawn) [BK-5Br-NM-AMT, hydrochloride] ?
Outgoing: < 5.00

Incoming: Please give the result for CNC(C)C(=O)c1c[nH]c2ccc(F)cc12 (stereo not drawn) [BK-5F-NM-AMT, hydrochloride] too.
Outgoing: < 5.00

Incoming: Please give the result for CNC(C)C(=O)c1c[nH]c2ccc(Cl)cc12 (stereo not drawn) [BK-5Cl-NM-AMT, hydrochloride] too.
Outgoing: < 5.00

====

molecular target: 5-Hydroxytryptamine (Serotonin) Receptor 3A (5-HT3A) (Homo sapiens, UniProt P46098); experiment: Ion channel assay, 5-HT3A; assay type: cell-based
Sequence (P46098 24-478): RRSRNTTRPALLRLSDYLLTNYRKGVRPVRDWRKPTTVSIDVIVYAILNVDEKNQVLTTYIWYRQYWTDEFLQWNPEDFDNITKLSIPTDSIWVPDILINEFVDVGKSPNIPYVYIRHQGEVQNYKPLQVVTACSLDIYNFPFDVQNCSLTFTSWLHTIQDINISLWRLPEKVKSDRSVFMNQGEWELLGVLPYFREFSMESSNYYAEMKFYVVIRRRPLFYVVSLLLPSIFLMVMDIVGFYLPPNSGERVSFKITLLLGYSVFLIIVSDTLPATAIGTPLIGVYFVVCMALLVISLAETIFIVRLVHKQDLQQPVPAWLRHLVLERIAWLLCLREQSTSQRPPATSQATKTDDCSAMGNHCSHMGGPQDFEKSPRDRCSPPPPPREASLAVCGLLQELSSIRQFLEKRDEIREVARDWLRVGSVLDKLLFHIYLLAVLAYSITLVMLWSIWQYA
Structures can show the parent of a compound that is named as a salt.
For each entry below, report its IC50 value.

Incoming: Which IC50 reading was recorded for the compound CNC(C)C(=O)c1c[nH]c2ccc(Cl)cc12 (stereo not drawn) [BK-5Cl-NM-AMT, hydrochloride] ?
Outgoing: 965 nM

Incoming: Please give the result for CNC(C)C(=O)c1c[nH]c2ccc(F)cc12 (stereo not drawn) [BK-5F-NM-AMT, hydrochloride] too.
Outgoing: > 30000 nM

Incoming: Please give the result for CNC(C)C(=O)c1c[nH]c2ccc(Br)cc12 (stereo not drawn) [BK-5Br-NM-AMT, hydrochloride] too.
Outgoing: 673 nM

====

Target: Muscarinic acetylcholine Receptor M2 (CHRM2) (Homo sapiens, UniProt P08172)
Sequence (P08172 1-466): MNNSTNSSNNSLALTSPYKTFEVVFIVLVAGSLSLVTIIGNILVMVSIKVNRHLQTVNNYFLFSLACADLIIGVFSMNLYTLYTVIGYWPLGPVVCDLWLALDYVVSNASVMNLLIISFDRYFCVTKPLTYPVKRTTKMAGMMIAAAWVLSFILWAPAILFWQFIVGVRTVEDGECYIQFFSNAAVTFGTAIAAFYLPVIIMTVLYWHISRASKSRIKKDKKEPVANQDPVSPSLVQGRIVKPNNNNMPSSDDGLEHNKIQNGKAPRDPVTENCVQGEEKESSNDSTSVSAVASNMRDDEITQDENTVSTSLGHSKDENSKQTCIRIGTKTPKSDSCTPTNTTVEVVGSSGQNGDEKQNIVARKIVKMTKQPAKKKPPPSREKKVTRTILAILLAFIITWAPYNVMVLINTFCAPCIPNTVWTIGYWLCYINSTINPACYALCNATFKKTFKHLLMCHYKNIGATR
Test: cAMP assay, CHRM2
pIC50: −log10 of the molar value. Counter-ions that a name gives are not always drawn.
experimentalReadout: pIC50

Incoming: Which pIC50 reading was recorded for the compound CNC(C)C(=O)c1c[nH]c2ccc(Br)cc12 (stereo not drawn) [BK-5Br-NM-AMT, hydrochloride] ?
Outgoing: < 5.00

Incoming: Please give the result for CNC(C)C(=O)c1c[nH]c2ccc(Cl)cc12 (stereo not drawn) [BK-5Cl-NM-AMT, hydrochloride] too.
Outgoing: < 5.00

Incoming: Please give the result for CNC(C)C(=O)c1c[nH]c2ccc(F)cc12 (stereo not drawn) [BK-5F-NM-AMT, hydrochloride] too.
Outgoing: < 5.00

====

For each entry below, report its pEC50 value.
biological target: Nuclear Hormone Glucocorticoid Receptor (GR) (Homo sapiens); experiment: NHR Protein Interaction assay, GR
pEC50: −log10 of the molar value. Where a name gives a salt, the structure may show the parent alone.

Incoming: Which pEC50 reading was recorded for the compound CNC(C)C(=O)c1c[nH]c2ccc(Br)cc12 (stereo not drawn) [BK-5Br-NM-AMT, hydrochloride] ?
Outgoing: < 5.00

Incoming: Please give the result for CNC(C)C(=O)c1c[nH]c2ccc(Cl)cc12 (stereo not drawn) [BK-5Cl-NM-AMT, hydrochloride] too.
Outgoing: < 5.00

Incoming: Please give the result for CNC(C)C(=O)c1c[nH]c2ccc(F)cc12 (stereo not drawn) [BK-5F-NM-AMT, hydrochloride] too.
Outgoing: < 5.00
